System: HT-29
Experiment: NCI tumour cell line growth inhibition, 48 h
The source made the active and inactive calls. No stated cut-off is given here; in the data, active = GI50 up to about 1.1 µM and inactive = higher.
Give your call using only these classes: true (1) for active, false (0) for inactive

Here's what some known entries look like.
- CCOC(=O)/C=C(/C(=O)OCC)n1ccc(=O)n(CC(=O)OCC)c1=O: false (0)
- N#Cc1nn(-c2ccc(Cl)cc2)c(=N)c2c(N)n3nc(-c4ccccc4)cc3nc12: true (1)

Input line: I would be grateful if you could indicate the recorded call for CCOP(=O)(OCC)C(Cc1c[nH]c2ccccc12)C(=O)O (stereo not drawn) .
Output line: false (0)

* * *

Tested on: BT-549
Assay: NCI tumour cell line growth inhibition, 48 h
Calls of active or inactive are those of the source. No stated cut-off is given here; in the data, active = GI50 up to about 1.1 µM and inactive = higher.
Give your call using only these classes: active, inactive

Input line: I would be grateful if you could indicate the recorded call for Clc1ccc(C2=C(c3ccccc3)C(c3ccc(Cl)cc3)N3C(=N[C@H]4CCCC[C@@H]43)N2)cc1 (stereo partly specified) .
Output line: inactive

Input line: Repeat with CC(C)(Br)C(Br)CCC1(C2CO2)CO1 (stereo unspecified)
Output line: inactive

Input line: Repeat with "CCOC(=O)/C=C(\C(=O)OCC)n1cc(C)c(=O)n(Cc2cnnn2CCCCOC(C)=O)c1=O"
Output line: inactive

Input line: Repeat with "CN(/N=C/c1cccc2cccnc12)c1ccc([N+](=O)[O-])cc1[N+](=O)[O-]"
Output line: inactive

Input line: Repeat with "[N-]=[N+]=CC(=O)OCCCCl"
Output line: inactive

Input line: Repeat with "Cc1ccc(C(=O)Cn2c(C(=O)/C=C/c3cccs3)nc3ccccc32)cc1"
Output line: inactive

Input line: Repeat with "CNNC(=NS(=O)(=O)c1cc(C#N)c(NNC)cc1S)NNC"
Output line: inactive

Input line: Repeat with "N=C(c1ccc2ccccc2c1)c1ccccc1Cc1ccccc1"
Output line: inactive

Input line: Repeat with "c1cc2n(n1)CCN2"
Output line: inactive

Input line: Repeat with "Cc1ccc2c(O)cc(-c3ccccc3)nc2n1"
Output line: active

Input line: Repeat with "Nc1c(C(=O)c2ccc(Cl)cc2)[nH]c(Nc2ccc(Cl)cc2)c1C(=S)Nc1ccccc1"
Output line: inactive
